For each record, write down the corresponding Growth Rate.
tested on: U2OS; test: Incucyte cell viability with U2OS; type: toxicity, cell-based; conditions: human, 12 h, 10 µM, compound concentration 10 uM, replicate number 1, timepoint 12 hours; further: filed as whole numbers so only -1 and 0 and 1 occur
One number for each entry.

# input Using the record for CC1CCN(CC[C@H]2CCCN2S(=O)(=O)c2cccc(O)c2)CC1.Cl , report its Growth Rate.
# output 1

For every listed record, write down its Growth Rate.
1. CCOC(=O)CCNc1cc(N2CCc3ccccc3CC2)nc(-c2cccnc2)n1
2. O=c1[nH]c2ccccc2n1C1CCN(Cc2ccc(-c3[nH]c4cc5ncnc5cc4nc3-c3ccccc3)cc2)CC1
3. CCCSc1nc(N[C@@H]2C[C@H]2c2ccc(F)c(F)c2)c2nnn([C@@H]3C[C@H](OCCO)[C@@H](O)[C@H]3O)c2n1
4. O=C(NCC(=O)N1CCCC1)Nc1ccc2cnccc2c1
5. COc1ccc(-c2ccc3cc(C(=O)O)ccc3c2)cc1C12CC3CC(CC(C3)C1)C2
6. CNC(=O)Nc1ccc2c(c1)[C@@]1(CC2)OC(=O)N(CC(=O)N(Cc2ccc(F)cc2)[C@@H](C)C(F)(F)F)C1=O

# output
[1, 0, 0, 1, 1, 0]

For every listed record, write down its Growth Rate.
1. CCOC(=O)c1cc2cc(-c3cc(C(=O)NCc4ccc(C(=O)O)cc4)nn3C)ccc2[nH]1
2. COCCOc1nc(-c2ccc(Cl)nc2)nc2c1CN(C(=O)c1ncn3ccccc13)CC2
3. COc1ccccc1CN[C@H]1C2CCN(CC2)[C@H]1C(c1ccccc1)c1ccccc1
4. O=C(O)C1CN(Cc2ccc(OCc3ccc(Cl)c(Cl)c3)cc2)C1
5. COc1cc2c(cc1NS(=O)(=O)c1ccc(Br)cc1C)n(C)c(=O)n2C
6. C[C@H](NC(=O)c1cnc2n1[C@](C)(Cc1ccc(C#N)cc1)C(=O)N2c1cc(Cl)c(F)c(Cl)c1)C(=O)NC1(c2ccccn2)CC1
7. O=C(Nc1ccc(Oc2ccc(F)cc2)cc1)N1CCc2ncccc2[C@H]1c1ccc(F)cc1

# output
1. 1
2. 1
3. 1
4. 1
5. 1
6. 1
7. 1

For every listed record, write down its Growth Rate.
1. Cc1noc([C@H]2C[C@@H](c3ccc(C(F)(F)F)cc3)CN(C(=O)N3CCS(=O)(=O)C3)C2)n1
2. Cc1cc([C@@H](C)Nc2ccccc2C(=O)O)c2nc(N3CCOCC3)cc(=O)n2c1
3. CN(C)C(=O)/C(C#N)=C/c1ccc(-c2nc3cnc4c(ccn4C)c3n2C2CCCCC2)o1

# output
[1, 0, 0]

---

test system: HEK-293T; experiment: Multiplex assay against HEK293T; assay type: toxicity, cell-based; conditions: human, 24 h, 1 µM, compound concentration 1 uM, replicate 2
parameter_measured: Population Mitotic Cells (%)

# input Using the record for COC(=O)C1=C(C)NC(C)=C(C(=O)OCCCN2CCC(c3ccccc3)(c3ccccc3)CC2)[C@H]1c1cccc([N+](=O)[O-])c1 , report its Population Mitotic Cells (%).
# output 4%

# input Using the record for C=CC(=O)Nc1ccc2[nH]c(=O)n(C3CCN(Cc4ccc(-c5nc6cc[nH]c(=O)c6cc5-c5ccccc5)cc4)CC3)c2c1 , report its Population Mitotic Cells (%).
# output 88%

# input Using the record for C[C@]12CC[C@@H]3c4ccc(O)cc4CC[C@H]3[C@@H]1CC[C@@H]2O , report its Population Mitotic Cells (%).
# output 93%

# input Using the record for Cc1cccc(CN2CCN(C(c3ccccc3)c3ccc(Cl)cc3)CC2)c1.Cl.Cl (stereo not drawn) , report its Population Mitotic Cells (%).
# output 89%

# input Using the record for COc1ccccc1CN[C@H]1C2CCN(CC2)[C@H]1C(c1ccccc1)c1ccccc1 , report its Population Mitotic Cells (%).
# output 89%

For every listed record, write down its Population Mitotic Cells (%).
1. CCc1ccc(OCc2ccccc2C(=O)Nc2ccc3nc(C)cc(N)c3c2)cc1.Cl
2. O=c1[nH]c2ccccc2n1C1CCN(Cc2ccc(-c3[nH]c4cc5ncnc5cc4nc3-c3ccccc3)cc2)CC1
3. Cc1ccc(C)c(Oc2ccncc2C(=O)N2CCN(C3CC3)c3ccccc32)c1

# output
1. 20%
2. 92%
3. 88%

---

system: U2OS; test: Multiplex assay against U2OS; type: toxicity, cell-based; conditions: human, 48 h, 10 µM, compound concentration 10 uM, replicate 2
For each record, write down the corresponding Total Cell Count.
Give bare numbers.

For every listed record, write down its Total Cell Count.
1. CC(C)NC(=O)N1CC[C@H](NC2=Nc3cc(F)ccc3N(CC(F)F)c3ccc(Cl)cc32)C1
2. Cc1ccccc1C(c1ccccc1C)N1C2CCC1CC(O)(c1ccccc1)C2 (stereo not given)
3. CN1CCN(Cc2ccc(Nc3ncc(Cl)c(Nc4ccccc4S(=O)(=O)N(C)C)n3)cc2)CC1 [DUBERMATINIB]
4. COc1cc(Nc2nccc(-c3cnn4nc(OC)ccc34)n2)cc(C(F)(F)F)c1
5. CC(C)Oc1ccccc1C(=O)Nc1ccccc1C(=O)Nc1cccc(S(=O)(=O)C(F)(F)F)c1

# output
115
141
104
127
64

For every listed record, write down its Total Cell Count.
1. CCCSc1nc(N[C@@H]2C[C@H]2c2ccc(F)c(F)c2)c2nnn([C@@H]3C[C@H](OCCO)[C@@H](O)[C@H]3O)c2n1 [TICAGRELOR]
2. COc1ccc(-c2ccc3ncc4c(c3c2)n(-c2ccc(N3CCNCC3)c(C(F)(F)F)c2)c(=O)n4C)cn1.O=C(O)/C=C\C(=O)O [BGT-226]
3. O=C(c1cc2c(cc1F)OC(c1ccc(F)cc1)(c1ccc(Cl)cc1Cl)O2)N1CCOCC1 (stereo not given)
4. COC(=O)C1=C(C)NC(C)=C(C(=O)OCCCN2CCC(c3ccccc3)(c3ccccc3)CC2)[C@H]1c1cccc([N+](=O)[O-])c1 [NIGULDIPINE]
5. CCc1ccc(OCc2ccccc2C(=O)Nc2ccc3nc(C)cc(N)c3c2)cc1.Cl

# output
1. 130
2. 534
3. 75
4. 97
5. 52

For every listed record, write down its Total Cell Count.
1. Cc1ccc(C)c(Oc2ccncc2C(=O)N2CCN(C3CC3)c3ccccc32)c1
2. CCOC(=O)Nc1cc(-c2ccc(C)c(NS(C)(=O)=O)c2)nn2c(C)nnc12
3. Cl.O=C(O)c1cc(-c2ccc(C3CCNCC3)cc2)c2ccc(-c3ccc(C(F)(F)F)cc3)cc2c1
4. CC1=C(C(=O)Nc2cc3cn[nH]c3cc2F)C(c2ccc(C(F)(F)F)cc2)CC(=O)N1 (stereo not given)
5. C[C@]12CC[C@@H]3c4ccc(O)cc4CC[C@H]3[C@@H]1CC[C@@H]2O [ESTRADIOL]
6. CC(C)c1noc(N2CCC(COc3ccc(-c4ccc(S(C)(=O)=O)cc4)nc3)CC2)n1 [GSK-1292263]
7. CC(C)OC(=O)N1CCC(Oc2ncnc3c2cnn3-c2ccc(S(C)(=O)=O)cc2F)CC1
8. COc1ccccc1CN[C@H]1C2CCN(CC2)[C@H]1C(c1ccccc1)c1ccccc1 [CP-96345]

# output
1. 83
2. 261
3. 80
4. 170
5. 157
6. 130
7. 157
8. 146

For every listed record, write down its Total Cell Count.
1. Cc1cccc(CN2CCN(C(c3ccccc3)c3ccc(Cl)cc3)CC2)c1.Cl.Cl (stereo not given)
2. O=c1cc(N2CCOCC2)oc2c(-c3cccc4c3sc3ccccc34)cccc12
3. Cc1c[nH]c2nccc(Oc3c(F)cc(Nc4cc(Cl)nc(N)n4)cc3F)c12 [BAY-549]
4. CCc1nn(CCCN2CCN(c3cccc(Cl)c3)CC2)c(=O)n1CCOc1ccccc1.Cl [NEFAZODONE HYDROCHLORIDE]
5. CNC(=O)Nc1ccc(-c2nc(N3CC4CCC(C3)O4)c3cnn(C4CCC5(CC4)OCCO5)c3n2)cc1
6. Cc1ccc2c(c1)c1c(n2CCc2ccc(C)nc2)CCN(C)C1 [LATREPIRDINE]
7. COc1cc2ncn(-c3cc(OCc4ccccc4C(F)(F)F)c(C(N)=O)s3)c2cc1OC [GW843682X]

# output
1: 95; 2: 116; 3: 60; 4: 110; 5: 74; 6: 156; 7: 78

---

test system: U2OS; assay: Multiplex assay against U2OS; format: toxicity, cell-based; settings: human, 12 h, 1 µM, compound concentration 1 uM, replicate 1
parameter_measured: Population Apoptotic (%)

Reference set, count: 6
# input Under U2OS: Population Apoptotic (%) value of O=c1cc(N2CCOCC2)oc2c(-c3cccc4c3sc3ccccc34)cccc12 ?
# output 35%

# input Under U2OS: Population Apoptotic (%) value of C=CC(=O)Nc1cccc(Oc2nc(Nc3ccc(N4CCN(C)CC4)cc3OC)ncc2Cl)c1 ?
# output 67%

# input Under U2OS: Population Apoptotic (%) value of Cc1cccc(CN2CCN(C(c3ccccc3)c3ccc(Cl)cc3)CC2)c1.Cl.Cl (centres undefined) ?
# output 27%

# input Under U2OS: Population Apoptotic (%) value of Cc1ccc2c(c1)c1c(n2CCc2ccc(C)nc2)CCN(C)C1 [LATREPIRDINE] ?
# output 53%

# input Under U2OS: Population Apoptotic (%) value of CCc1ccc(OCc2ccccc2C(=O)Nc2ccc3nc(C)cc(N)c3c2)cc1.Cl ?
# output 80%

# input Under U2OS: Population Apoptotic (%) value of Cc1c[nH]c2nccc(Oc3c(F)cc(Nc4cc(Cl)nc(N)n4)cc3F)c12 [BAY-549] ?
# output 47%

For every listed record, write down its Population Apoptotic (%).
1. O=c1[nH]c2ccccc2n1C1CCN(Cc2ccc(-c3[nH]c4cc5ncnc5cc4nc3-c3ccccc3)cc2)CC1
2. CCc1nn(CCCN2CCN(c3cccc(Cl)c3)CC2)c(=O)n1CCOc1ccccc1.Cl [NEFAZODONE HYDROCHLORIDE]
3. CC(C)(C)NC[C@H](O)COc1nsnc1N1CCOCC1 [TIMOLOL]

# output
44%
42%
77%
